Cited source for all entries: ChEMBL document CHEMBL1156696

Biological target: Hepatocyte growth factor receptor (Homo sapiens, UniProt P08581)
Sequence (P08581 whole entry): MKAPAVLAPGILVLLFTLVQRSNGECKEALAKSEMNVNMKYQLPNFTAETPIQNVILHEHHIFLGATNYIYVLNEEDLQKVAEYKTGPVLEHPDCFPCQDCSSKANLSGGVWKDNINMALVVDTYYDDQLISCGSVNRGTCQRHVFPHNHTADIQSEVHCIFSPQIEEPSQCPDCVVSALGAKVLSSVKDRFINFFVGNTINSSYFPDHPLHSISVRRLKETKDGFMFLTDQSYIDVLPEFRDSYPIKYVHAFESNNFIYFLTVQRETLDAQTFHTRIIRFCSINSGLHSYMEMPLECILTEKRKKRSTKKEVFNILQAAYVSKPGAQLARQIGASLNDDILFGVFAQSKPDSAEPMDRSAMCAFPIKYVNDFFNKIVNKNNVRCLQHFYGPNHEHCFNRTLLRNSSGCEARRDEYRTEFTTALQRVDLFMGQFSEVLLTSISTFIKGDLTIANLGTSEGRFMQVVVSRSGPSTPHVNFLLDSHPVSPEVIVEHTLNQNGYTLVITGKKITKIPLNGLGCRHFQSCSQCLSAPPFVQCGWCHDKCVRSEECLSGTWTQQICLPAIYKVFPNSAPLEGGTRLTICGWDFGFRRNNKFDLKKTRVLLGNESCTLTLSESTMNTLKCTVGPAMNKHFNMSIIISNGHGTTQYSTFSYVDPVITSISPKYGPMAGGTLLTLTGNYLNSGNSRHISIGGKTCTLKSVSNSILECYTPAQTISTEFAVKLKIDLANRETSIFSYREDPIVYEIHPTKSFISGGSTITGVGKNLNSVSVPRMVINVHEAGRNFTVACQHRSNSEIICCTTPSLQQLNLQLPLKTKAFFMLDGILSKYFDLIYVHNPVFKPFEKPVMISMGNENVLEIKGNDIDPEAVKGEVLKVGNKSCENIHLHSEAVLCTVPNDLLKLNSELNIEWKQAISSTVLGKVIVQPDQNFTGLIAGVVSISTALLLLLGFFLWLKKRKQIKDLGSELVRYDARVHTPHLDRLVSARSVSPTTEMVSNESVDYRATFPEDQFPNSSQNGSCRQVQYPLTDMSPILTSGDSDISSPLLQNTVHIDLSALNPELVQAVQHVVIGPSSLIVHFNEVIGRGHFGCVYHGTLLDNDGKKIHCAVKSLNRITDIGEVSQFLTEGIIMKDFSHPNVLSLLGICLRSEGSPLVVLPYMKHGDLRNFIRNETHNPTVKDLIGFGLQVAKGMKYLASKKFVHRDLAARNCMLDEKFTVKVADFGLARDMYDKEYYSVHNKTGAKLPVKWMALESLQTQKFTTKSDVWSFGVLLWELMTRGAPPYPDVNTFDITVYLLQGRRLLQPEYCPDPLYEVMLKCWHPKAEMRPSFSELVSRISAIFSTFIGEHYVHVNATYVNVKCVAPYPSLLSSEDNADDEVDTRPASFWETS
Experiment: Inhibition of human activated c-Met by PK/LDH coupled kinetic assay
pKi: −log10 of the molar value.
Property: pKi

INSERT INTO measurements (smiles_input, observed_value) VALUES
  ('COc1cc2nccc(Oc3ccc(NC(=O)N4CCNCC4)nc3)c2cc1OC', '< 4.52');
